Here, each record is paired with measured MIC data.
- Test system: Lichtheimia corymbifera
- run.description: In vitro minimum inhibitory concentration of compound was determined against Absidia corymbifera after 48 hr
- Assay type: functional

Reference set, count: 8
{"columns": ["compound", "MIC"],
 "data": [
  ["CC(=O)N1CCN(c2ccc(OC[C@H]3CO[C@](Cn4ccnc4)(c4ccc(Cl)cc4Cl)O3)cc2)CC1 [KETOCONAZOLE]", "31.2 µM"],
  ["CC1C=C(c2ccc([N+](=O)[O-])cc2)C(=O)O1 (configuration not stated)", "250 µM"],
  ["CC1C=C(c2ccc(Br)cc2)C(=O)O1 (configuration not stated)", "125 µM"],
  ["Cc1ccc(C2=CC(C)OC2=O)cc1 (configuration not stated)", "> 1000 µM"],
  ["CC1C=C(c2ccc(F)cc2)C(=O)O1 (configuration not stated)", "62.5 µM"],
  ["CC1C=C(c2ccc(Cl)c(Cl)c2)C(=O)O1 (configuration not stated)", "31.2 µM"],
  ["COc1ccc(C2=CC(C)OC2=O)cc1 (configuration not stated)", "> 1000 µM"],
  ["CC1C=C(c2cccc(F)c2)C(=O)O1 (configuration not stated)", "500 µM"]
]}

Quick one: MIC of CC1C=C(c2ccccc2)C(=O)O1 (configuration not stated) ? > 1000 µM

MIC for CC1C=C(c2cccc(Br)c2)C(=O)O1 (configuration not stated) ? 125 µM

Query (compound): CC1C=C(c2ccc(Cl)cc2)C(=O)O1 (configuration not stated) ; field requested: MIC 250 µM

Quick one: MIC for "CC[C@@H]1C=C(c2ccc(C)cc2)C(=O)O1" ? 250 µM

----------
The entries below come with measured log10 of MIC values attached.
- System: Candida albicans
- run.description: In vitro minimum inhibitory concentration of compound was determined against Candida albicans after 48 hr
- Format: functional
Please note: log10 values; quantity MIC; unit µM.

Field: example entries. Status: answers known.
{"columns": ["molecule", "log10 of MIC"],
 "data": [
  ["CC1C=C(c2ccc(Cl)cc2)C(=O)O1 (configuration not stated)", 2.10],
  ["CC1C=C(c2ccc([N+](=O)[O-])cc2)C(=O)O1 (configuration not stated)", 2.70],
  ["CC(=O)N1CCN(c2ccc(OC[C@H]3CO[C@](Cn4ccnc4)(c4ccc(Cl)cc4Cl)O3)cc2)CC1 [KETOCONAZOLE]", -0.92],
  ["CC[C@@H]1C=C(c2ccc(C)cc2)C(=O)O1", 2.70],
  ["COc1ccc(C2=CC(C)OC2=O)cc1 (configuration not stated)", 3.00]
]}

Look at this molecule and give its reported log10 of MIC. CC1C=C(c2cccc(F)c2)C(=O)O1 (configuration not stated) 2.40

I'd like to know its log10 of MIC. The molecule in question is CC1C=C(c2ccc(Cl)c(Cl)c2)C(=O)O1 (configuration not stated) 2.70

Return reported log10 of MIC; argument: CC1C=C(c2ccc(F)cc2)C(=O)O1 (configuration not stated) 2.40

Recorded log10 of MIC of CC1C=C(c2cccc(Br)c2)C(=O)O1 (configuration not stated) , please. 2.10

Reported log10 of MIC, molecule CC1C=C(c2ccc(Br)cc2)C(=O)O1 (configuration not stated) : ____ 1.80
